System: DHFR (human against Plasmodium falciparum DHFR)
Test: Selectivity index, ratio of Ki for human DHFR expressed in Escherichia coli BL21 to Ki for Plasmodium falciparum DHFR expressed in Escherichia coli BL21
Assay type: toxicity
Settings: read-out: Ratio Ki
Group membership follows selectivity ratio per the scheme low band = under 40, middle band = from 40 up to 80, high band = 80 and over

[[record]]
compound = "CC1(C)N=C(N)N=C(N)N1OCCCCc1ccccc1"
measured_on = "DHFR (human against Plasmodium falciparum DHFR)"
class = "high band"

[[record]]
compound = "CC1(C)N=C(N)N=C(N)N1OCCSc1ccc(Cl)cc1"
measured_on = "DHFR (human against Plasmodium falciparum DHFR)"
class = "high band"

[[record]]
compound = "CN(CCCON1C(N)=NC(N)=NC1(C)C)c1ccc(Cl)c(Cl)c1"
measured_on = "DHFR (human against Plasmodium falciparum DHFR)"
class = "low band"

[[record]]
compound = "CC1(C)N=C(N)N=C(N)N1OCCCOc1ccc(Cl)cc1"
measured_on = "DHFR (human against Plasmodium falciparum DHFR)"
class = "middle band"

[[record]]
compound = "CN(CCCON1C(N)=NC(N)=NC1(C)C)c1ccc(Cl)cc1"
measured_on = "DHFR (human against Plasmodium falciparum DHFR)"
class = "low band"

[[record]]
compound = "CC1(C)N=C(N)N=C(N)N1OCCCOc1cc(Cl)c(Cl)cc1Cl"
measured_on = "DHFR (human against Plasmodium falciparum DHFR)"
class = "low band"

[[record]]
compound = "Cc1ccc(C)c(NCCCON2C(N)=NC(N)=NC2(C)C)c1"
measured_on = "DHFR (human against Plasmodium falciparum DHFR)"
class = "high band"

[[record]]
compound = "CC1N=C(N)N=C(N)N1OCCCOc1ccc(Cl)cc1 (configuration not stated)"
measured_on = "DHFR (human against Plasmodium falciparum DHFR)"
class = "high band"

[[record]]
compound = "CC1(C)N=C(N)N=C(N)N1OCCCOc1ccccc1"
measured_on = "DHFR (human against Plasmodium falciparum DHFR)"
class = "middle band"

[[record]]
compound = "CC1(C)NC(N)=NC(=N)N1OCCCCOc1ccccc1"
measured_on = "DHFR (human against Plasmodium falciparum DHFR)"
class = "middle band"

